# PROTOCOL_DESCRIPTION: Toxicity to KHYG-1 NK cells (Trypan blue exclusion)
# Format: cell-based, human
# STUDY_CONDITIONS: human, KHYG-1 NK cells; 20 μM, 4 h exposure, viability after 24 h, Trypan blue, ± SEM
Note to self: use class 1 only for viability at 4 h, 20 µM readings below 90%; a reading exactly at 90% still gets class 0.

Completed entries (count: 5):
{"COMPOUND": "O=C1NC(=S)N/C1=C/c1ccc(-c2ccc3c(c2)CNC3=O)s1", "ASSIGNED_CATEGORY": "class 0"}
{"COMPOUND": "CN1Cc2cc(-c3ccc(/C=C4/NC(=S)NC4=O)s3)ccc2C1=O", "ASSIGNED_CATEGORY": "class 1"}
{"COMPOUND": "O=C1NC(=S)N/C1=C/c1ccc(-c2ccc3c(c2)CN(CCO)C3=O)s1", "ASSIGNED_CATEGORY": "class 1"}
{"COMPOUND": "CC1c2cc(-c3ccc(/C=C4/NC(=S)NC4=O)s3)ccc2C(=O)N1C (stereo not shown)", "ASSIGNED_CATEGORY": "class 1"}
{"COMPOUND": "CCOC(=O)N1Cc2cc(-c3ccc(/C=C4/NC(=S)NC4=O)s3)ccc2C1=O", "ASSIGNED_CATEGORY": "class 0"}

Input line: Regarding "O=C1NC(=S)N/C1=C/c1ccc(-c2ccc3c(c2)C(=O)NCC3)s1" , kindly confirm whether its viability at 4 h, 20 µM is beneath 90%.
Output line: class 1

Input line: Regarding "O=C1NC(=O)/C(=C\c2ccc(-c3ccc4c(c3)CNC4=O)s2)N1" , kindly confirm whether its viability at 4 h, 20 µM is beneath 90%.
Output line: class 0
